Test: chemical genetic growth profiling, strain panel (AID 1159580);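 also: tested at 20 µM; growth read once vehicle control cultures reached saturation at 30 °C; 1 = growth at the plate median or of vehicle wells; lower values mean less growth of the strain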
Conditions: S. cerevisiae deletion strains, growth OD, locus YGR252W, strain gcn5
The whole screen tested about 5,500 compounds, of which about 2,000 (36%) were called active. Inconclusive results (about 18%) are left out. Rule as the data show it: active = normalized growth mostly below about 0.91 (no sharp cut-off); inconclusive = no clear call, values can overlap the other calls; inactive = mostly above about 0.92. The list shows a part of the results.
Possible outcomes: T for active, F for inactive

compound	class
OC[C@H]1O[C@@H](O[C@H]2[C@H](O)[C@@H](O)[C@@H](O)O[C@@H]2CO)[C@H](O)[C@@H](O)[C@@H]1O	F
CC12CCC(O)CC1CCC1C2[C@H](O)CC2(C)C(C3=CC(=O)OC3)CCC12O (some centres not stated)	F
COc1cc(C(C)=O)cc(OC)c1O	F
CC(=O)O[C@@H]1C=C[C@@]2(C)C(C[C@@H](OC(C)=O)[C@@]3(C)C4=CC(=O)O[C@@H](c5ccoc5)[C@]4(C)CCC23)C1(C)C (some centres not stated)	T
CN(C)[C@@H]1C(=O)C(C(N)=O)=C(O)[C@@]2(O)C(=O)C3=C(O)c4c(O)ccc(Cl)c4[C@@](C)(O)[C@H]3C[C@@H]12	F
CC(=O)O[C@H]1CC[C@@]2(C)C(C[C@@H](OC(C)=O)[C@@]3(C)C4=CC(=O)O[C@@H](c5ccoc5)[C@]4(C)CCC23)C1(C)C (some centres not stated)	F
CN(C)CCCN1c2ccccc2CCc2ccc(Cl)cc21	T
N[C@@H](CCC(=O)N[C@@H](CS)C(=O)NCC(=O)O)C(=O)O	F
O=P1(N(CCCl)CCCl)NCCCO1 (configuration not stated)	F
CC(=O)OC1CCC2(C)C(CC(OC(C)=O)C3(C)C4=CC(=O)OC(c5ccoc5)C4(C)CCC23)C1(C)C (configuration not stated)	F
CCN(CC)CCOC(=O)C1(C2CCCCC2)CCCCC1	F
CN(C)C1C(=O)C(C(N)=O)=C(O)C2(O)C(=O)C3=C(O)c4c(O)ccc(Cl)c4C(C)(O)C3CC12 (configuration not stated)	F
CN(C)CCCN1c2ccccc2Sc2ccc(Cl)cc21	F
CC[N+](C)(C)c1cccc(O)c1	F
Cc1ccc2c(c1)C1(C)CCCC(C)(C(=O)O)C1CC2 (configuration not stated)	F
CCN(CC)CCOC(=O)C(c1ccccc1)C1CCCCC1 (configuration not stated)	F
NCCCCCCNS(=O)(=O)c1cccc2c(Cl)cccc12	F

* * *

Test: chemical genetic growth profiling, strain panel (AID 1159580);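 also: tested at 20 µM; growth read once vehicle control cultures reached saturation at 30 °C; 1 = growth at the plate median or of vehicle wells; lower values mean less growth of the strain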
Settings: S. cerevisiae deletion strains, growth OD, locus YJR066W, strain TOR1
About 2,000 (36%) of roughly 5,500 compounds were called active. Inconclusive results (about 18%) are left out. No stated cut-off is given here; in the data, active means normalized growth mostly below about 0.91 (no sharp cut-off); inconclusive means no clear call, values can overlap the other calls; inactive means mostly above about 0.92. Some of the results follow.
Possible outcomes: TRUE for active, FALSE for inactive

>>> print(df.to_string())
                                   compound  class
0  CCOC(=O)[C@H](CCc1ccccc1)N[C@@H](C)C(=O)N1CCC[C@H]1C(=O)O  FALSE
1          CN(C)C(=O)Oc1cccc([N+](C)(C)C)c1  FALSE
2  Cc1c(C)c(C)c(C(=O)c2ccc(N=Cc3cc(Cl)cc(Cl)c3O)cc2)c(C)c1C   TRUE
3  CC(=O)Oc1ccc(C(c2ccc(OC(C)=O)cc2)c2ccccn2)cc1  FALSE
4                   CC[N+](C)(C)c1cccc(O)c1  FALSE
5    CC(=O)Nc1ccc(S(=O)(=O)Nc2onc(C)c2C)cc1  FALSE
6  CC(=O)O[C@H]1CC[C@@]2(C)C(C[C@@H](OC(C)=O)[C@@]3(C)C4=CC(=O)O[C@@H](c5ccoc5)[C@]4(C)CCC23)C1(C)C (stereo partly drawn)  FALSE
7  CC(=O)c1ccc(Cl)c(N=Cc2cc(Br)cc(Br)c2O)c1   TRUE

* * *

Assay: chemical genetic growth profiling, strain panel (AID 1159580);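 also: tested at 20 µM; growth read once vehicle control cultures reached saturation at 30 °C; 1 = growth at the plate median or of vehicle wells; lower values mean less growth of the strain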
Details: S. cerevisiae deletion strains, growth OD, locus YDR159W, strain sac3, active compounds read low
The whole screen tested about 5,500 compounds, of which about 2,000 (36%) were called active. Inconclusive results (about 18%) are left out. The list shows a part of the results.
parameter measured: normalized growth

compound	assay result
CC(=O)O[C@H]1CC[C@@]2(C)C(=CC(=O)C3C4CCC(C(C)CCCC(C)C)[C@@]4(C)CCC32)C1 (some centres undefined)	1.01
CC(=O)Oc1ccc(/C=C/c2cc(OC(C)=O)cc(OC(C)=O)c2)cc1	0.951
CN(C)[C@@H]1C(=O)C(C(N)=O)=C(O)[C@@]2(O)C(=O)C3=C(O)c4c(O)cccc4[C@@](C)(O)[C@H]3[C@H](O)[C@@H]12	1.05
O=C(CC(=O)c1ccccc1)c1ccccc1	0.541
Oc1cccc(O)c1	0.953
C[C@H]1c2cccc(O)c2C(O)=C2C(=O)[C@]3(O)C(O)=C(C(N)=O)C(=O)[C@@H](N(C)C)[C@@H]3[C@@H](O)[C@@H]21	0.951
CC(=O)Nc1ccc(S(=O)(=O)Nc2onc(C)c2C)cc1	0.946
CC(=O)Oc1ccc(O)cc1	0.967
C=C1c2c(Cl)ccc(O)c2C(O)=C2C(=O)[C@]3(O)C(O)=C(C(N)=O)C(=O)[C@@H](N(C)C)[C@@H]3[C@@H](O)[C@H]12	0.966
CC(C)=CCCC(C)[C@@H]1CC[C@]2(C)C3=C(CC[C@@]12C)C1(C)CC[C@H](O)C(C)(C)C1CC3 (some centres undefined)	1.05
O=C(OOC(=O)c1ccccc1)c1ccccc1	0.94
CN[C@@H]1[C@H](O)[C@H](NC)[C@H]2O[C@@]3(O)C(=O)C[C@@H](C)O[C@H]3O[C@@H]2[C@H]1O	0.969
CC(=O)Oc1ccc(C(c2ccc(OC(C)=O)cc2)c2ccccn2)cc1	0.993
C=C1c2cccc(O)c2C(O)=C2C(=O)[C@]3(O)C(O)=C(C(N)=O)C(=O)[C@@H](N(C)C)[C@@H]3[C@@H](O)[C@H]12	1.01
CC(C)NCC(O)COc1ccc(COCCOC(C)C)cc1 (centres undefined)	0.979
CC1=CC(=O)c2ccccc2C1=O	0.983
CC(C)=CCc1c2c(c3occ(-c4ccc(O)c(O)c4)c(=O)c3c1O)C=CC(C)(C)O2	0.959
CN(C)CCCN1c2ccccc2Sc2ccccc21	0.984
COc1ccc([C@@H]2CC(=O)c3c(O)cc(O[C@@H]4O[C@H](CO[C@H]5O[C@@H](C)[C@H](O)[C@@H](O)[C@H]5O)[C@@H](O)[C@H](O)[C@H]4O)cc3O2)cc1O	0.977
CS(=O)(=O)Nc1ccc([N+](=O)[O-])cc1Oc1ccccc1	0.977
CCC(C)[C@H]1O[C@]2(C=C[C@@H]1C)C[C@@H]1C[C@@H](C/C=C(\C)[C@@H](OC3C[C@H](OC)C(O[C@H]4C[C@H](OC)[C@@H](O)[C@H](C)O4)[C@H](C)O3)[C@@H](C)/C=C/C=C3\CO[C@@H]4[C@H](O)C(C)=C[C@@H](C(=O)O1)[C@]34O)O2 (some centres undefined)	0.915
CC(=O)Oc1cccc(O)c1	1.05
CC(C)=CC1C(C(=O)O)C1(C)C (centres undefined)	0.959
O=C(OCc1ccccc1)c1ccccc1	0.951
CN(C)CCCN1c2ccccc2Sc2ccc(Cl)cc21	0.274
CN(C)CCCN1c2ccccc2CCc2ccccc21	1
CC(=O)O[C@H]1CCC2(C)C3=C(CCC2C1(C)C)[C@]1(C)CCC(C(C)CCC=C(C)C)[C@@]1(C)CC3 (some centres undefined)	0.965
CC(=O)c1ccc(O)c(CC=C(C)C)c1	0.896
C/C1=C/CC(C)(C)/C=C/C/C(C)=C/CC1	0.975

* * *

Measured normalized growth by item
Assay: chemical genetic growth profiling, strain panel (AID 1159580);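 also: tested at 20 µM; growth read once vehicle control cultures reached saturation at 30 °C; 1 = growth at the plate median or of vehicle wells; lower values mean less growth of the strain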
Conditions: S. cerevisiae deletion strains, growth OD, locus YGL173C, strain kem1, active compounds read low
Among all 5,500 compounds or so, about 2,000 (36%) were called active. Inconclusive results (about 18%) are left out. Some of the results follow.
parameter measured: normalized growth

>>> print(df.to_string())
                                   compound  parameter_measured  assay_result
0  CC(C)(C)NCC(O)c1ccc(O)c(CO)c1 (stereo not drawn)   normalized growth          1.01
1  CC(Cc1cccc(C(F)(F)F)c1)NCCOC(=O)c1ccccc1 (stereo not drawn)   normalized growth         0.919
2  CC(CCc1ccccc1)NCC(O)c1ccc(O)c(C(N)=O)c1 (stereo not drawn)   normalized growth          1.01
3  CC(C)CCCC(C)[C@H]1CCC2C3C(=O)C=C4C[C@@H](O)CC[C@]4(C)C3CC[C@@]21C (stereo partly drawn)   normalized growth             1
4  CC(=O)O[C@H]1CC[C@@]2(C)C(=CC(=O)C3C4CCC(C(C)CCCC(C)C)[C@@]4(C)CCC32)C1 (stereo partly drawn)   normalized growth         0.978
5                   CC[N+](C)(C)c1cccc(O)c1   normalized growth          1.02
6  COc1ccc(C2Sc3ccccc3N(CCN(C)C)C(=O)C2OC(C)=O)cc1 (stereo not drawn)   normalized growth          1.01
7    CN(C)CCCN1c2ccccc2Sc2ccc(C(F)(F)F)cc21   normalized growth         0.996
